# study_system: P2X7 receptor (Homo sapiens, UniProt Q99572)
# Construct: host or cells: THP-1 cells differentiated with LPS and IFN-γ
# Sequence (Q99572 whole entry): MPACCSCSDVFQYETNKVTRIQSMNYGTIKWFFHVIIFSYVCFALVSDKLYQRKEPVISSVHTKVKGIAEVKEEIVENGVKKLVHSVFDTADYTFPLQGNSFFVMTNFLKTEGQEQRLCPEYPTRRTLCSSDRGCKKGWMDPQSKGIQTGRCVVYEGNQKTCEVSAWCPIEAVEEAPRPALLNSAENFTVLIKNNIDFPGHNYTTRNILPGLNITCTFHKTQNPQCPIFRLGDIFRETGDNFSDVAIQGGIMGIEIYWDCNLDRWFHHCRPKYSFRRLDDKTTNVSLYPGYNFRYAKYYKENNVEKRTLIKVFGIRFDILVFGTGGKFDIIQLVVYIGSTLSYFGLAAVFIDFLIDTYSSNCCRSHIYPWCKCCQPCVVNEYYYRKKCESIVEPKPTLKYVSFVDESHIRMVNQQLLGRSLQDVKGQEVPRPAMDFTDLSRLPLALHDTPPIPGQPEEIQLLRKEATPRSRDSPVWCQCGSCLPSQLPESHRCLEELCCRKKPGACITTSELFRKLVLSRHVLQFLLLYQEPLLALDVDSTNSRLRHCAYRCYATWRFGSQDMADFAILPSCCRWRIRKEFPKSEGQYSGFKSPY
# assay_summary: Alternate method for IL-1β release assay (differentiated THP-1 cells, BzATP-stimulated, ELISA)
# Format: cell-based
# details: P2X7; 0.3 μM compound (asterisk symbols); read-out: IL-1β % inhib @ 0.3 μM
property: inhibition at 0.3 µM

>  <compound>
O=S(=O)(c1ccc(OC(F)F)cc1)N1CCc2c(ncnc2NCC23CC4CC(CC(C4)C2)C3)C1

>  <property>
inhibition at 0.3 µM

>  <endpoint_result>
25 to 50%

$$$$
>  <compound>
O=S(=O)(Cc1ccc(Cl)c(Cl)c1)N1CCc2c(ncnc2NCC23CC4CC(CC(C4)C2)C3)C1

>  <property>
inhibition at 0.3 µM

>  <endpoint_result>
0 to 25%

$$$$
>  <compound>
O=S(=O)(c1ccccc1OC(F)(F)F)N1CCc2c(ncnc2NCC23CC4CC(CC(C4)C2)C3)C1

>  <property>
inhibition at 0.3 µM

>  <endpoint_result>
0 to 25%

$$$$
>  <compound>
N#Cc1cccc(CN2CCc3c(ncnc3NCC34CC5CC(CC(C5)C3)C4)C2)c1

>  <property>
inhibition at 0.3 µM

>  <endpoint_result>
> 75%

$$$$
>  <compound>
c1ccc(Oc2ccc(CN3CCc4c(ncnc4NCC45CC6CC(CC(C6)C4)C5)C3)cc2)cc1

>  <property>
inhibition at 0.3 µM

>  <endpoint_result>
50 to 75%

$$$$
>  <compound>
O=S(=O)(c1cc(C(F)(F)F)ccc1Cl)N1CCc2c(ncnc2NCC23CC4CC(CC(C4)C2)C3)C1

>  <property>
inhibition at 0.3 µM

>  <endpoint_result>
25 to 50%

$$$$
>  <compound>
Cc1nn(C)c(C)c1S(=O)(=O)N1CCc2c(ncnc2NCC23CC4CC(CC(C4)C2)C3)C1

>  <property>
inhibition at 0.3 µM

>  <endpoint_result>
0 to 25%

$$$$
>  <compound>
COc1ccc(S(=O)(=O)N2CCc3c(ncnc3NCC34CC5CC(CC(C5)C3)C4)C2)cc1

>  <property>
inhibition at 0.3 µM

>  <endpoint_result>
25 to 50%

$$$$
>  <compound>
CCCC(C)CN1CCc2c(ncnc2NCC23CC4CC(CC(C4)C2)C3)C1 (stereo not shown)

>  <property>
inhibition at 0.3 µM

>  <endpoint_result>
> 75%

$$$$
>  <compound>
O=C(Cc1ccccc1Br)N1CCc2c(ncnc2NCC23CC4CC(CC(C4)C2)C3)C1

>  <property>
inhibition at 0.3 µM

>  <endpoint_result>
0 to 25%

$$$$
>  <compound>
O=S(=O)(c1ccc(Oc2ccc(C(F)(F)F)cc2)cc1)N1CCc2c(ncnc2NCC23CC4CC(CC(C4)C2)C3)C1

>  <property>
inhibition at 0.3 µM

>  <endpoint_result>
0 to 25%

$$$$
>  <compound>
O=C(C(c1ccccc1)c1ccccc1)N1CCc2c(ncnc2NCC23CC4CC(CC(C4)C2)C3)C1

>  <property>
inhibition at 0.3 µM

>  <endpoint_result>
0 to 25%

$$$$
>  <compound>
CC(C)(C)C(=O)N1CCc2c(ncnc2NCC23CC4CC(CC(C4)C2)C3)C1

>  <property>
inhibition at 0.3 µM

>  <endpoint_result>
50 to 75%

$$$$
>  <compound>
O=C(c1cccc(Cl)c1)N1CCc2c(ncnc2NCC23CC4CC(CC(C4)C2)C3)C1

>  <property>
inhibition at 0.3 µM

>  <endpoint_result>
> 75%

$$$$
>  <compound>
O=C(c1ccc(Cl)c(Cl)c1)N1CCc2c(ncnc2NCC23CC4CC(CC(C4)C2)C3)C1

>  <property>
inhibition at 0.3 µM

>  <endpoint_result>
25 to 50%

$$$$
>  <compound>
O=C(c1ccc(Cl)nc1)N1CCc2c(ncnc2NCC23CC4CC(CC(C4)C2)C3)C1

>  <property>
inhibition at 0.3 µM

>  <endpoint_result>
0 to 25%

$$$$
>  <compound>
COc1ccc(C(=O)N2CCc3c(ncnc3NCC34CC5CC(CC(C5)C3)C4)C2)cc1

>  <property>
inhibition at 0.3 µM

>  <endpoint_result>
0 to 25%

$$$$
>  <compound>
CC(CN1CCc2c(ncnc2NCC23CC4CC(CC(C4)C2)C3)C1)c1ccccc1 (stereo not shown)

>  <property>
inhibition at 0.3 µM

>  <endpoint_result>
0 to 25%

$$$$
>  <compound>
COc1cccc(S(=O)(=O)N2CCc3c(ncnc3NCC34CC5CC(CC(C5)C3)C4)C2)c1

>  <property>
inhibition at 0.3 µM

>  <endpoint_result>
50 to 75%

$$$$
>  <compound>
N#Cc1ccc(S(=O)(=O)N2CCc3c(ncnc3NCC34CC5CC(CC(C5)C3)C4)C2)c(Cl)c1

>  <property>
inhibition at 0.3 µM

>  <endpoint_result>
0 to 25%

$$$$
>  <compound>
O=C(c1cccnc1Oc1ccccc1)N1CCc2c(ncnc2NCC23CC4CC(CC(C4)C2)C3)C1

>  <property>
inhibition at 0.3 µM

>  <endpoint_result>
> 75%

$$$$
>  <compound>
O=S(=O)(c1ccc(Oc2ccncc2)cc1)N1CCc2c(ncnc2NCC23CC4CC(CC(C4)C2)C3)C1

>  <property>
inhibition at 0.3 µM

>  <endpoint_result>
25 to 50%

$$$$
>  <compound>
O=S(=O)(c1cc(Cl)ccc1F)N1CCc2c(ncnc2NCC23CC4CC(CC(C4)C2)C3)C1

>  <property>
inhibition at 0.3 µM

>  <endpoint_result>
25 to 50%

$$$$
>  <compound>
Cc1nn(C)c(Cl)c1S(=O)(=O)N1CCc2c(ncnc2NCC23CC4CC(CC(C4)C2)C3)C1

>  <property>
inhibition at 0.3 µM

>  <endpoint_result>
0 to 25%

$$$$
>  <compound>
CCN1CCc2c(ncnc2NCC23CC4CC(CC(C4)C2)C3)C1

>  <property>
inhibition at 0.3 µM

>  <endpoint_result>
25 to 50%

$$$$
>  <compound>
c1nc2c(c(NCC34CC5CC(CC(C5)C3)C4)n1)CCN(CC1CCCCC1)C2

>  <property>
inhibition at 0.3 µM

>  <endpoint_result>
> 75%

$$$$
>  <compound>
O=S(=O)(c1cc(Cl)cc(Cl)c1)N1CCc2c(ncnc2NCC23CC4CC(CC(C4)C2)C3)C1

>  <property>
inhibition at 0.3 µM

>  <endpoint_result>
0 to 25%

$$$$
>  <compound>
CN1CCOc2cc(S(=O)(=O)N3CCc4c(ncnc4NCC45CC6CC(CC(C6)C4)C5)C3)ccc21

>  <property>
inhibition at 0.3 µM

>  <endpoint_result>
0 to 25%

$$$$
>  <compound>
O=C(c1cc(C(F)(F)F)ccc1Cl)N1CCc2c(ncnc2NCC23CC4CC(CC(C4)C2)C3)C1

>  <property>
inhibition at 0.3 µM

>  <endpoint_result>
0 to 25%

$$$$
>  <compound>
Cc1cc(C(=O)N2CCc3c(ncnc3NCC34CC5CC(CC(C5)C3)C4)C2)c(C)o1

>  <property>
inhibition at 0.3 µM

>  <endpoint_result>
> 75%

$$$$
>  <compound>
CC(C)CCN1CCc2c(ncnc2NCC23CC4CC(CC(C4)C2)C3)C1

>  <property>
inhibition at 0.3 µM

>  <endpoint_result>
25 to 50%

$$$$
>  <compound>
O=C(c1ccc(Cl)cc1Cl)N1CCc2c(ncnc2NCC23CC4CC(CC(C4)C2)C3)C1

>  <property>
inhibition at 0.3 µM

>  <endpoint_result>
> 75%

$$$$
>  <compound>
Cc1ccc(CN2CCc3c(ncnc3NCC34CC5CC(CC(C5)C3)C4)C2)cc1C

>  <property>
inhibition at 0.3 µM

>  <endpoint_result>
0 to 25%

$$$$
>  <compound>
CCCS(=O)(=O)N1CCc2c(ncnc2NCC23CC4CC(CC(C4)C2)C3)C1

>  <property>
inhibition at 0.3 µM

>  <endpoint_result>
50 to 75%

$$$$
